- Test system: T1, corticotropin releasing factor 2 receptor
- T1 sequence (Q13324 whole entry, species assumed, looked up): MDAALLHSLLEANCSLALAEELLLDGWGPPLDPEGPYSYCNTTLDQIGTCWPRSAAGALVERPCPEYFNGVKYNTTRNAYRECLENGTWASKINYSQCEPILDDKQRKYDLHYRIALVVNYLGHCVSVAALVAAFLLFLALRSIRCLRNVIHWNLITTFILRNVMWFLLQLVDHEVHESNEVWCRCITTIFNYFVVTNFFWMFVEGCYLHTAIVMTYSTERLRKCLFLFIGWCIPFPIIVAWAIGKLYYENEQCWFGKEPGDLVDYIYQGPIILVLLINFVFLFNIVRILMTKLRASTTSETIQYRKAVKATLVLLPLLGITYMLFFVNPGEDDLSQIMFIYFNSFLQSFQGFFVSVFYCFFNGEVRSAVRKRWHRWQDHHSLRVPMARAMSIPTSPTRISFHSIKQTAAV
- Protocol text: cell-based or functional assay
Ends that are not written are not given here.
Recorded endpoint: CRF2R EC50

binder="IVLSLDVPIHLLQILLEQARARAAREQATTNARILARV-NH2 [SEQ ID NO 371]" result="6.62 nM"
binder="ZGPPISIDLPAALLRKMIEIEKQEKEKQQAANNRLLLDTI (not fully specified; C-terminal amide) [SEQ ID NO 303]" result="27.2 nM"
binder="ZGPPISIDLPYHLLRKMIEIEKQEKEKQQAANNALLLAT (C-terminal amide) [SEQ ID NO 315]" result="9.35 nM"
binder="ZGPPISIDLPHQLLRKMIEIEKQEKEKQQAANNRLLLDTI (C-terminal amide) [SEQ ID NO 212]" result="21.3 nM"
binder="ZGPPISIDLPQILLRKMIEIEKQEKEKQQAANNARLLARI (C-terminal amide) [SEQ ID NO 285]" result="13.9 nM"
binder="NDDPPISIDLPFLLLRNMIEMARIENEREQAGLNAKYLAEV-NH2 [SEQ ID NO 260]" result="100 nM"
